protocol notes: protein stability index of a GFP-peptide fusion (GPS, HEK-293T) (PSI 1-6); higher = more stable;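 also: 24-mer peptide tiles fused after GFP, lentivirally expressed, FACS-sorted into six equal bins by GFP/DsRed ratio, decoded by Illumina sequencing, PSI is the read-weighted mean bin number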
cond: treatment: DMSO; c terminus: a fixed tail appended
measurement type: protein stability index
// keep it numeric: no unit symbol after the value

Known protein stability index results, listed for orientation:
{"columns": ["entry sequence", "value reported"],
 "data": [
  ["PVPILEKLPLQIDCLAAWEEWLLV [VPS39]", 2.24],
  ["GGPQALVNIMRTYTYEKLLWTTSR [CTNNB1]", 2.43],
  ["DLVKKIRDFHRKILTLPEMMRMFS [TRIM15]", 2.45],
  ["WLVHRDPEGSVSGSQPNSGLALES [NFE2L1]", 3.78]
]}

protein stability index for MAAGFPYALRAYLGYQAVPSGSSG [CEBPB] is 2.1

protein stability index for MKEPITKAEILESVIKNYEDHFPL [MAGEA10] is 3.98

protein stability index for LTTKGEMPVQLTSRREIRKIMGVE [ANKRD40] is 3.7

protein stability index for PIHTIILNPHVHLVGDDAACIAYI [CAMK2D] is 2

protein stability index for MKRQNVRTLSLIVCTFTYLLVGAA [KCNK9] is 3.36

protein stability index for CTLGICGQGLKSYMTKPSKSLLPH [RTP4] is 2.2

protein stability index for ERPYGCDECEKAYFYMSCLVKHKR [ZNF649] is 2.48

Values were extracted from the supplement of paper PMC10567573.
